From: PubChem BioAssay (NCATS)

EXPERIMENT: Quantitative High-Throughput drug screen in 47 multiple myeloma cell lines against the NCATS MIPE library collection: AMO1_DSMZ cell viability assay (AID 1918927; further: nearly all actives have a fitted effect of over 30% in size)
PARTICULARS: AMO1 myeloma cells viability, CellTiter-Glo ATP luminescence, 48 h; series mostly up to 45.8 µM
Description: PI: Beverly A. Mock Ph.D. Laboratory of Cancer Biology and Genetics, Center for Cancer Research, National Cancer Institute, National Institute of Health, Bethesda, Maryland […] 5; Detector; 425V; Luminescence; Viewlux PerkinElmer. […] 1. […] Briefly, the corresponding myeloma cell lines were screened in 1,536-well plates with 500 cells, 5-uL per well for inhibition of cell viability (assessed by measuring ATP levels with CellTiterGlo). […]
Inconclusive results are not listed. The source made the active and inactive calls. The call rests on the fitted dose curve; in most records, active means well fitted cell-killing curve with a large enough effect; inconclusive means small, poorly fitted or top-dose-only effect, or effect the other way; inactive means no such curve, though single readings can be large or run the other way.
Choose one outcome from this list and give only that: yes (1) for active, no (0) for inactive

Ask: // outcome(item) with item = `NCC1(CC(=O)O)CCCCC1`
Result: no (0)

Ask: // outcome(item) with item = `CN(C)[C@@H]1C(=O)C(C(N)=O)=C(O)[C@@]2(O)C(=O)C3=C(O)c4c(O)cccc4[C@@](C)(O)[C@H]3C[C@@H]12`
Result: no (0)

Ask: // outcome(item) with item = `CN(C)CCc1ccc(O)cc1`
Result: no (0)

Ask: // outcome(item) with item = `C[C@@H]1O[C@@H](O[C@H]2C[C@@H](O)[C@]3(CO)[C@H]4[C@H](O)C[C@]5(C)[C@@H](C6=CC(=O)OC6)CC[C@]5(O)[C@@H]4CC[C@]3(O)C2)[C@H](O)[C@H](O)[C@H]1O`
Result: yes (1)

Ask: // outcome(item) with item = `CC1=C2C[C@@H]3[C@@H](CC=C4C[C@@H](O)CC[C@@]43C)[C@@H]2CC[C@]12O[C@H]1C[C@H](C)CN[C@H]1[C@H]2C`
Result: no (0)

Ask: // outcome(item) with item = CNC(=O)N1N=C(c2ccc(N)cc2)c2cc3c(cc2CC1C)OCO3 (stereo not drawn)
Result: yes (1)

Ask: // outcome(item) with item = `CN1CCN(C(=O)O[C@H]2c3nccnc3C(=O)N2c2ccc(Cl)cn2)CC1`
Result: no (0)

Ask: // outcome(item) with item = O=P1(NCCCl)OCCCN1CCCl (stereo not drawn)
Result: yes (1)

Ask: // outcome(item) with item = COC[C@H]1OC(=O)c2coc3c2[C@@]1(C)C1=C(C3=O)C2CCC(=O)[C@@]2(C)C[C@H]1OC(C)=O (stereo partly drawn)
Result: yes (1)

Ask: // outcome(item) with item = `N[C@@H](Cc1ccc(N(CCCl)CCCl)cc1)C(=O)O`
Result: yes (1)

Ask: // outcome(item) with item = CCCC(C)(COC(N)=O)COC(=O)NC(C)C (stereo not drawn)
Result: no (0)

Ask: // outcome(item) with item = `C[C@@H]1[C@@H](C(=O)C[C@H]2O[C@@H]3O[C@]4(C)CC[C@@H]5[C@H](C)CC[C@@H]([C@H]2C)[C@@]35OO4)O[C@@H]2O[C@]3(C)CC[C@H]4[C@H](C)CC[C@@H]1[C@@]24OO3`
Result: yes (1)

Ask: // outcome(item) with item = `CN(C)CCN(C)CCc1ccc(Cl)c(Cl)c1`
Result: yes (1)
